assay: small-molecule microarray binders of probe aShh, primary screen, biochemical, biotinylated probe, 635/667 nm fluorescence (AID 1114); details: higher = more signal;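 further: probe is biotin-labelled aShh protein from a stem cell growth factor screen; measures binding of labelled protein to compounds printed on the slide; score merges feature fluorescence at 667 nm with signal-to-noise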
For each entry below, report its composite z-score value.
// return just the number, without any unit appended

composite z-score measured on COC(=O)C1=CC(CCCO)=CC(C2CC2)N(Cc2sc3ccccc3c2Cl)C=C1C(=O)OC (centres undefined) = 0.441

composite z-score measured on Cc1cc(C)cc(N2C(=O)CS(=O)(=O)C2c2cccc([N+](=O)[O-])c2)c1 (centres undefined) = 0.108

composite z-score measured on O=C1O[C@H](c2ccccc2)[C@H](c2ccccc2)N2[C@H]1[C@@H](C(=O)N1CCN(c3ncccn3)CC1)[C@]1(C(=O)Nc3ccccc31)[C@H]2c1ccc(OCCO)cc1 = -0.0578

composite z-score measured on Cc1ccc(S[C@]2(C(=O)NC3CC3)CC(=O)N(Cc3ccccc3)[C@@H]2c2ccc(CO)cc2)cc1 = -0.237

composite z-score measured on O=C(CS)NCCCCCCNC(=O)[C@H]1C[C@H]2C(=O)N3CCC[C@H]3C(=O)N2[C@H]1c1cccc(OCCO)c1 = 0.251

composite z-score measured on COCCOC(=O)N1C(=O)[C@@]2(c3cc(C#CCNC(N)=O)ccc31)[C@H](C(=O)N1CCN(c3ncccn3)CC1)[C@H]1C(=O)O[C@H](c3ccccc3)[C@H](c3ccccc3)N1[C@@H]2c1ccccc1OCCO = 0.175

composite z-score measured on COC(=O)[C@@]1(Cc2ccccc2)[C@H]2c3cc(C(=O)N4CCCC4)n(Cc4ccc(C)o4)c3C[C@H]2CN1C(=O)c1ccccc1 = -0.214

composite z-score measured on CN(C)CCCCNC(=O)[C@H]1C[C@H]2C(=O)N[C@@H](Cc3ccccc3)C(=O)N2[C@H]1c1ccc(O)cc1 = -0.0243

composite z-score measured on CN(C)C(=O)[C@@]1(CCC(=O)OC(C)(C)C)N=C(c2ccc(OCCCO)cc2)O[C@H]1c1ccccc1 = 0.357

composite z-score measured on COc1ccc(C#Cc2ccc3c(c2)[C@]2(C(=O)N3)[C@H](C(=O)NC[C@H](O)c3ccccc3)[C@H]3C(=O)O[C@H](c4ccccc4)[C@H](c4ccccc4)N3[C@@H]2c2ccccc2OCCO)cc1 = 0.232

composite z-score measured on COCCOC(=O)N1C(=O)[C@@]2(c3ccccc31)[C@H](C(=O)NC[C@H](O)c1ccccc1)[C@H]1C(=O)O[C@H](c3ccccc3)[C@H](c3ccccc3)N1[C@@H]2c1ccc(OCCO)cc1 = 0.0723

composite z-score measured on COc1ccc([Si](C)(C)[C@@H]2[C@@H](CCn3cc([C@H](O)c4ccccc4)nn3)O[C@]3(C(=O)N(Cc4ccc(N5C(=O)c6cccc7cccc5c67)cc4)c4ccccc43)[C@H]2C)cc1 = -0.0904

composite z-score measured on CC(C)N1CC=CC23O[C@@H]4C=CCOC(=O)[C@@H]4[C@H]2C(=O)N(CCO)[C@@H]3C1=O (some centres undefined) = -0.11

composite z-score measured on C=CC(COC(C)=O)NS(=O)(=O)c1ccc(Br)cc1 (centres undefined) = 0.0948
